molecular target: β5i subunit of isolated human 20S proteasome (Homo sapiens); construct: purchased Enzo Life Sciences; assay: Proteasome inhibition assay (20 S Proteasome Assay Kit, Suc‐LLVY‐AMC); type: biochemical; details: c=100 nM; read-out: Rel. Inhibition β5i
Observable: inhibition at 0.1 µM (%)

[[record]]
compound = "Cc1ccc(NC(=O)C(=O)[C@H](CC(C)C)NC(=O)[C@H](CC(=O)OC(C)(C)C)NC(=O)[C@H](CC(C)C)NC(=O)OCc2ccccc2)c(C)c1 [Compound 17]"
observable = "inhibition at 0.1 µM"
reported_value = 36

[[record]]
compound = "Cc1cc(C)c(Oc2ccccc2)cc1NC(=O)C(=O)[C@H](CC(C)C)NC(=O)[C@H](CC(=O)OC(C)(C)C)NC(=O)[C@H](CC(C)C)NC(=O)c1cc(Cl)ccc1Cl [Compound 29]"
observable = "inhibition at 0.1 µM"
reported_value = 8

[[record]]
compound = "CC(C)C[C@H](NC(=O)OCc1ccccc1)C(=O)N[C@@H](CC(=O)OC(C)(C)C)C(=O)N[C@@H](CC(C)C)C(=O)C(=O)Nc1cccc(Oc2ccccc2)c1 [Compound 19]"
observable = "inhibition at 0.1 µM"
reported_value = 43

[[record]]
compound = "CC(C)C[C@@H](C=O)NC(=O)[C@H](CC(C)C)NC(=O)[C@H](CC(C)C)NC(=O)c1cc(Cl)ccc1Cl [Compound 24]"
observable = "inhibition at 0.1 µM"
reported_value = 60

[[record]]
compound = "CC(C)C[C@H](NC(=O)OCc1ccccc1)C(=O)N[C@@H](CC(C)C)C(=O)N[C@@H](CC(C)C)C(=O)C(=O)Nc1cccc(Oc2ccccc2)c1 [Compound 9]"
observable = "inhibition at 0.1 µM"
reported_value = 23

[[record]]
compound = "CC(C)C[C@H](NC(=O)[C@H](Cc1ccccc1)NC(=O)c1cnccn1)B(O)O [Bortezomib 1, Bortezomib, reference compound]"
observable = "inhibition at 0.1 µM"
reported_value = 85


====

Measured Survival of embryos (not dechorionated) of individual entries
System: Danio rerio embryos
Assay: Danio rerio embryo toxicity assay (not dechorionated)
Format: in vivo
Details: 5 µM, 24 h
Description: Danio rerio embryo toxicity assay. Fish keeping protocols are approved by the Darmstadt administrative authority and documented. All fish were treated humanely. […] Embryos were decollated into separate wells containing a total volume of 200 μL and the inhibitor at the given concentration.
Observable: Survival of embryos (not dechorionated)

[[record]]
compound = "Cc1cc(C)c(Oc2ccccc2)cc1NC(=O)C(=O)[C@H](CC(C)C)NC(=O)[C@H](CC(C)C)NC(=O)[C@H](CC(C)C)NC(=O)c1cc(Cl)ccc1Cl [Compound 27]"
system_tested = "Danio rerio embryos"
observable = "Survival of embryos (not dechorionated)"
reported_value = "100%"

[[record]]
compound = "CC(C)C[C@H](NC(=O)[C@H](CCc1ccccc1)NC(=O)CN1CCOCC1)C(=O)N[C@@H](Cc1ccccc1)C(=O)N[C@@H](CC(C)C)C(=O)[C@@]1(C)CO1 [Carfilzomib 3, Carfilzomib]"
system_tested = "Danio rerio embryos"
observable = "Survival of embryos (not dechorionated)"
reported_value = "100%"

[[record]]
compound = "CC(C)C[C@H](NC(=O)OCc1ccccc1)C(=O)N[C@@H](CC(C)C)C(=O)N[C@@H](CC(C)C)C(=O)C(=O)Nc1cccc(Oc2ccccc2)c1 [Compound 9]"
system_tested = "Danio rerio embryos"
observable = "Survival of embryos (not dechorionated)"
reported_value = "100%"

[[record]]
compound = "CC(C)C[C@H](NC(=O)[C@H](Cc1ccccc1)NC(=O)c1cnccn1)B(O)O [Bortezomib 1, Bortezomib, reference compound]"
system_tested = "Danio rerio embryos"
observable = "Survival of embryos (not dechorionated)"
reported_value = "100%"

[[record]]
compound = "Cc1ccc(NC(=O)C(=O)C(CC(C)C)NC(=O)C(CC(C)C)NC(=O)C(CC(C)C)NC(=O)OCc2ccccc2)c(C)c1 (centres unmarked) [Compound 7, BSc4999]"
system_tested = "Danio rerio embryos"
observable = "Survival of embryos (not dechorionated)"
reported_value = "100%"

